- tgt: LRRK2 G2019S (Homo sapiens (Human), UniProt Q5S007, G2019S)
- Sequence (Q5S007 970-2527 G2019S): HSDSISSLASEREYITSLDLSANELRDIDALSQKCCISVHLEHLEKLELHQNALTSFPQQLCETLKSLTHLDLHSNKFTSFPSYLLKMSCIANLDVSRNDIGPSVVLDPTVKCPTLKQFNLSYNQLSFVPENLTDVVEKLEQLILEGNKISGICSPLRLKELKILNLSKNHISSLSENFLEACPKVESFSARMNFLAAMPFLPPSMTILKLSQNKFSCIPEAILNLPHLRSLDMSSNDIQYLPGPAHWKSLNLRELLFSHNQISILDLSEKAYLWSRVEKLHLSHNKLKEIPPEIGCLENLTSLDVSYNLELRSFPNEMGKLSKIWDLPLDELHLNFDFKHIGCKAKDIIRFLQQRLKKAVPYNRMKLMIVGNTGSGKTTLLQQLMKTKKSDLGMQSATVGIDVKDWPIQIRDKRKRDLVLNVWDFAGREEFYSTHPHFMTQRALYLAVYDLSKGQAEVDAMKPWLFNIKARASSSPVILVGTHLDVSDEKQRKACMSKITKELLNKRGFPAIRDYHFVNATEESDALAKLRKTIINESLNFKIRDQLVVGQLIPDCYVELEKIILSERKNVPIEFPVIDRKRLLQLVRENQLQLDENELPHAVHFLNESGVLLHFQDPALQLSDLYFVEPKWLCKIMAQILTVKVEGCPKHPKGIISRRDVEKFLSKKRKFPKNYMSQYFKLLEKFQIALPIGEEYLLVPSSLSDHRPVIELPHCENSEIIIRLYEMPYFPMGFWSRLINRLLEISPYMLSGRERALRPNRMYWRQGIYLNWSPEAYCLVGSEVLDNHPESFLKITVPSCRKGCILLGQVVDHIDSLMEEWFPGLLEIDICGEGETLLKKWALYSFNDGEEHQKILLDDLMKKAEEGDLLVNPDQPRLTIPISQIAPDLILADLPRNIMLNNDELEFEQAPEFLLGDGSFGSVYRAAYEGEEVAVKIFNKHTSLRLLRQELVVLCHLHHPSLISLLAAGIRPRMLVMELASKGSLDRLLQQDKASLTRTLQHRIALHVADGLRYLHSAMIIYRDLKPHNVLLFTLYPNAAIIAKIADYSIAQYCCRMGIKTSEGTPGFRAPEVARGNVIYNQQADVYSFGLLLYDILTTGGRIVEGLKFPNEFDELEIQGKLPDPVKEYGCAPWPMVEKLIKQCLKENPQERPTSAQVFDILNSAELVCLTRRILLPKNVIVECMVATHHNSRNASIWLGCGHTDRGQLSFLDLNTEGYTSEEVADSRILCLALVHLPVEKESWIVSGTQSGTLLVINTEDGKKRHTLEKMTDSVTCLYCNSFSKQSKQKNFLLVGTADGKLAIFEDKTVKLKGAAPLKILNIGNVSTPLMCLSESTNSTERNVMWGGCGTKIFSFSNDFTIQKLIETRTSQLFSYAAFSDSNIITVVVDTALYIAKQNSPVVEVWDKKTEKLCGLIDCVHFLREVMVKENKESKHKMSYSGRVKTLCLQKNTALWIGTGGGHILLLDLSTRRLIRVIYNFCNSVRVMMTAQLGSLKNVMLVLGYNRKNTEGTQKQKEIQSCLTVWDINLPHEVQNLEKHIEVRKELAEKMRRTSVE
- test summary: Adapta Kinase Assay (LRRK2_IC50 assay)
- condition summary: inhibition of LRRK2 G2019S
pIC50: −log10 of the molar value.
quantity kind: pIC50

Reference set, count: 3
Request: Suppose we examine the molecule CC(C)n1cc2c(n1)CN(C1CCOCC1)c1nccc3[nH]nc-2c13 ; what pIC50 value has been reported?
Result: 7.30

Request: Entry CC(C)N1CCCc2n[nH]c3ccnc1c23 : reported pIC50 = ?
Result: 6.64

Request: Which measured pIC50 value corresponds to CN1CCC(N2Cc3ccccc3-c3n[nH]c4ccnc2c34)CC1 ?
Result: 7.30

a = CN1Cc2ccccc2-c2n[nH]c3ccnc1c23
b = CCN1CCN(C2CCOCC2)c2nccc3[nH]nc1c23
c = CC1Cc2n[nH]c3ccnc(c23)N(C2CCOCC2)C1 (stereo not drawn)
Request: Sort entries by pIC50 from minimum to maximum value. Note for the reader: the ranking is given by listing the labels in the order requested.
Result: b, c, a
(b: 6.09, c: 6.60, a: 7.15)

These entries and their values trace back to patent US10918645B2.
